Where do the numbers come from? From patent US7700644B2.

- experiment: Oral pharmacokinetics in mice
- Type: in vivo, female BALB/c mice
- assay-conditions: female, BALB/c, mouse, blood, 50 mg/kg, oral gavage, Time 1 (1 hr), read-out: Free concentration in blood
parameter: concentration at 1 h
Include the unit after the number when you answer.

I have this compound here, Oc1ccc(C2=Cc3ccc(O)cc3OC2)cc1 [DHE, 3-(4-hydroxyphenyl)chrom-3-en-7-ol] , and I need its recorded concentration at 1 h.
1.5 µM

I have this compound here, COc1ccc(C23COc4c(ccc(O)c4C)C2C2c4ccc(O)c(C)c4OCC2c2cc(OC)c(OC)cc23)cc1OC (centres unmarked) , and I need its recorded concentration at 1 h.
6.76 µM

###

- System: SKOV-3 (Ovarian)
- experiment: In vitro cytotoxicity, MTT proliferation assay, SKOV-3
- Assay type: cell-based, human
- assay-conditions: Homo sapiens, SK-OV-3; Ovarian SKOV-3
parameter: IC50 (µM)
Please state the figure in µM; there is no need to write the unit.

I have this compound here, COc1ccc(C23COc4c(ccc(O)c4C)C2C2c4ccc(O)c(C)c4OCC2c2cc(OC)c(OC)cc23)cc1OC (centres unmarked) , and I need its recorded IC50.
16.7

I have this compound here, Oc1ccc(C2=Cc3ccc(O)cc3OC2)cc1 [DHE, 3-(4-hydroxyphenyl)chrom-3-en-7-ol] , and I need its recorded IC50.
21.8

###

- System: NCI-H460 (Lung)
- experiment: In vitro cytotoxicity, MTT proliferation assay, NCI-H460
- Assay type: cell-based, human
parameter: IC50 (µM)
Please state the figure in µM; there is no need to write the unit.

I have this molecule here, N.N.[Cl][Pt][Cl] [Cisplatin, cis-diamminedichloroplatinum] , and I need its recorded IC50.
22.3

###

- System: breast cancer cell line MDA-MB-468
- experiment: In vitro cytotoxicity, MTT proliferation assay, MDA-MB-468
- Type: cell-based, human
- assay-conditions: Homo sapiens; Breast MDA-MB-468
Answer each item with its documented IC50.
Please state the figure in µM; there is no need to write the unit.

I have this compound here, Oc1ccc(C2=Cc3ccc(O)cc3OC2)cc1 [DHE, 3-(4-hydroxyphenyl)chrom-3-en-7-ol] , and I need its recorded IC50.
7.9

I have this compound here, COc1ccc(C23COc4c(ccc(O)c4C)C2C2c4ccc(O)c(C)c4OCC2c2cc(OC)c(OC)cc23)cc1OC (centres unmarked) , and I need its recorded IC50.
8.59

###

- experiment: Oral pharmacokinetics in mice
- Type: in vivo, female BALB/c mice
- assay-conditions: female, BALB/c, mouse, blood, 50 mg/kg, oral gavage, Time 0.25 (15 min), read-out: Free concentration in blood
parameter: concentration at 15 min (nM)
Please state the figure in nM; there is no need to write the unit.

I have this molecule here, COc1ccc(C23COc4c(ccc(O)c4C)C2C2c4ccc(O)c(C)c4OCC2c2cc(OC)c(OC)cc23)cc1OC (centres unmarked) , and I need its recorded concentration at 15 min.
1330

I have this molecule here, Oc1ccc(C2=Cc3ccc(O)cc3OC2)cc1 [DHE, 3-(4-hydroxyphenyl)chrom-3-en-7-ol] , and I need its recorded concentration at 15 min.
3300

###

- experiment: Oral pharmacokinetics in mice
- Assay type: in vivo, female BALB/c mice
- assay-conditions: female, BALB/c, mouse, blood, 50 mg/kg, oral gavage, Time 4 (4 hr), read-out: Free concentration in blood
Answer each item with its documented concentration at 4 h.
Please state the figure in µM; there is no need to write the unit.

I have this molecule here, COc1ccc(C23COc4c(ccc(O)c4C)C2C2c4ccc(O)c(C)c4OCC2c2cc(OC)c(OC)cc23)cc1OC (centres unmarked) , and I need its recorded concentration at 4 h.
6.31

I have this molecule here, Oc1ccc(C2=Cc3ccc(O)cc3OC2)cc1 [DHE, 3-(4-hydroxyphenyl)chrom-3-en-7-ol] , and I need its recorded concentration at 4 h.
1.3

###

- Test system: A2780 (Ovarian)
- experiment: In vitro cytotoxicity, MTT proliferation assay, A2780
- Type: cell-based, human
- assay-conditions: Homo sapiens
parameter: pIC50
Please express pIC50 as -log10 of the molar concentration.

I have this molecule here, COc1ccc(C23COc4c(ccc(O)c4C)C2C2c4ccc(O)c(C)c4OCC2c2cc(OC)c(OC)cc23)cc1OC (centres unmarked) , and I need its recorded pIC50.
4.99

I have this molecule here, Oc1ccc(C2=Cc3ccc(O)cc3OC2)cc1 [DHE, 3-(4-hydroxyphenyl)chrom-3-en-7-ol] , and I need its recorded pIC50.
5.77

###

- Tested on: LNCaP (Prostate)
- experiment: In vitro cytotoxicity, MTT proliferation assay, LNCaP
- Format: cell-based, human
pIC50: −log10 of the molar value.
parameter: pIC50

I have this compound here, N.N.[Cl][Pt][Cl] [Cisplatin, cis-diamminedichloroplatinum] , and I need its recorded pIC50.
< 5.00
